target: HPK1 (Homo sapiens, UniProt Q92918); assay: HPK1 kinase activity assay (ADP-Glo); settings: HPK1 Kinase activity IC50 (nM), 1 nM HPK1, 10 μM ATP, 0.1 μg/μL MBP
Sequence (Q92918 1-346 limits assumed): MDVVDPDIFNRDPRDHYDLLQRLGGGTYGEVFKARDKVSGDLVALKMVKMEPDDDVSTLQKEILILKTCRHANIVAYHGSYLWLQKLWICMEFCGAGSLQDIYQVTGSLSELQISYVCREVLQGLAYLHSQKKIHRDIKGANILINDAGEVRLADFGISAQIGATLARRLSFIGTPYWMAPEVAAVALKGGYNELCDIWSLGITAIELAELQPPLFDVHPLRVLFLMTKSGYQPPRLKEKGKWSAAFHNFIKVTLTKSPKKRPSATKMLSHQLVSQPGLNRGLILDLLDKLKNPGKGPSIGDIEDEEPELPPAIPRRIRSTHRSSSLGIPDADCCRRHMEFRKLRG
Each record's class is read off its IC50 using these ranges: class 1 (below 0.3 nM), class 2 (0.3 nM to below 0.8 nM), class 3 (0.8 nM or more)

Here are 2 compounds together with their reported answers.
CC(C#N)c1c[nH]c2ncc(-c3cc4c(c([C@@H]5CCCN5)c3)COCC4)cc12 (stereo partly drawn); class 1
Nc1ncc(-c2cc3c(c([C@H]4CCCN4)c2)COCC3)cc1-c1cn[nH]c1 (single isomer, unassigned); class 3

Band for Cc1c[nH]c2ncc(-c3cc4c(c([C@@H]5CCCN5)c3)CCN(C(=O)C3CC3)C4)cc12 ?
class 3

Band assignment needed for Cc1c[nH]c2ncc(-c3cc4c(c([C@@H]5CCCN5)c3)CN(C(=O)N3CCOC[C@@H]3C)CC4)cc12 please.
class 1

Please classify: Cc1c[nH]c2ncc(-c3cc4c(c([C@@H]5CCCN5)c3)CCN(C(=O)C3(O)CC3)C4)cc12
class 3

For the record CO[C@H]1CCN(C(=O)N2CCc3cc(-c4cnc5[nH]cc(C)c5c4)cc([C@@H]4CCCN4)c3C2)C1 , report the class its IC50 corresponds to.
class 2
